Below is a list of entries, each paired with its recorded self-splicing fitness (ln) value.
Test: self-splicing fitness, log relative to wild type (ln ratio); higher = more splicing; Tetrahymena group I intron in knt gene, E. coli kanamycin selection, DiMSum; sequences stand for … in CUCUCU…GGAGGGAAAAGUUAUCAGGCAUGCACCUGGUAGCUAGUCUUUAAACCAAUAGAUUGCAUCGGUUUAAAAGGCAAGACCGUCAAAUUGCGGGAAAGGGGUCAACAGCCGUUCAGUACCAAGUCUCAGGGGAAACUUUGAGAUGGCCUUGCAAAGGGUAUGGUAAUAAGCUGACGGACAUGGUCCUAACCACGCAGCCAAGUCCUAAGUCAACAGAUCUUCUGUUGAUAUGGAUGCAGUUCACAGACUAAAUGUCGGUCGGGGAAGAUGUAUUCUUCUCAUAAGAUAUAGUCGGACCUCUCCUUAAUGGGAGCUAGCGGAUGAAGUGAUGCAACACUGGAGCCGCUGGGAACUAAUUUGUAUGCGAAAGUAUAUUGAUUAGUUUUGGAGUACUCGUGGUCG;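 further: selection with 25 µg/mL kanamycin versus none on LB agar overnight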
Conditions: 30 °C
# respond with the number and nothing more

Suppose we examine the sequence GUGUAGCAAUAUUACGACAG ; what self-splicing fitness (ln) value has been reported? -2.07

###

Assay: self-splicing fitness, log relative to wild type (ln ratio); higher = more splicing; Tetrahymena group I intron in knt gene, E. coli kanamycin selection, DiMSum; sequences stand for … in CUCUCU…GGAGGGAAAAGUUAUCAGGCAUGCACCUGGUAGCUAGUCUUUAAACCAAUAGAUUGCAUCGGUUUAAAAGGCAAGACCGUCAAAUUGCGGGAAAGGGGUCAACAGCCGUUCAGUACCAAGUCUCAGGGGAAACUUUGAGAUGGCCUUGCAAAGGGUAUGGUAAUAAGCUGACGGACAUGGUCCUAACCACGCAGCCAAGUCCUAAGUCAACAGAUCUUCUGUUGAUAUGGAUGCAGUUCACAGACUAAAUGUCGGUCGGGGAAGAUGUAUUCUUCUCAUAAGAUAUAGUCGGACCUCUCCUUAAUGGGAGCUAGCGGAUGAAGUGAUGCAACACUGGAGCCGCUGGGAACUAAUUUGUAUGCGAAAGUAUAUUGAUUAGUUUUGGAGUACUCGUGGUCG
Conditions: 37 °C
Below is a list of entries, each paired with its recorded self-splicing fitness (ln) value.
# respond with the number and nothing more

The cases that follow already have their self-splicing fitness (ln) on record.
{"CHAIN": "ACUAAGCAAUAUUACGUAAC", "ASSAY_METRIC": "self-splicing fitness (ln)", "RESULT_NUMBER": -2.48}
{"CHAIN": "CAUAAGCAAUAUUACGAGGU", "ASSAY_METRIC": "self-splicing fitness (ln)", "RESULT_NUMBER": -2.6}
{"CHAIN": "GACCAGCAAUAUUACGUUCG", "ASSAY_METRIC": "self-splicing fitness (ln)", "RESULT_NUMBER": -0.063}
{"CHAIN": "CUUAAGCAAUAUUACGUCGU", "ASSAY_METRIC": "self-splicing fitness (ln)", "RESULT_NUMBER": -2.22}
{"CHAIN": "AAUUAGCAAUAUUACGACUU", "ASSAY_METRIC": "self-splicing fitness (ln)", "RESULT_NUMBER": 0.0237}
{"CHAIN": "UAAGAGCAAUAUUACGGGCU", "ASSAY_METRIC": "self-splicing fitness (ln)", "RESULT_NUMBER": -2.53}

Suppose we examine the sequence CGCCAGCAAUAUUACGUAUG ; what self-splicing fitness (ln) value has been reported? -0.0225

Suppose we examine the sequence CCUAAGCAAUAUUACGGCCU ; what self-splicing fitness (ln) value has been reported? -1.84

###

Assay: self-splicing fitness, log relative to wild type (ln ratio); higher = more splicing; Tetrahymena group I intron in knt gene, E. coli kanamycin selection, DiMSum; sequences stand for … in CUCUCU…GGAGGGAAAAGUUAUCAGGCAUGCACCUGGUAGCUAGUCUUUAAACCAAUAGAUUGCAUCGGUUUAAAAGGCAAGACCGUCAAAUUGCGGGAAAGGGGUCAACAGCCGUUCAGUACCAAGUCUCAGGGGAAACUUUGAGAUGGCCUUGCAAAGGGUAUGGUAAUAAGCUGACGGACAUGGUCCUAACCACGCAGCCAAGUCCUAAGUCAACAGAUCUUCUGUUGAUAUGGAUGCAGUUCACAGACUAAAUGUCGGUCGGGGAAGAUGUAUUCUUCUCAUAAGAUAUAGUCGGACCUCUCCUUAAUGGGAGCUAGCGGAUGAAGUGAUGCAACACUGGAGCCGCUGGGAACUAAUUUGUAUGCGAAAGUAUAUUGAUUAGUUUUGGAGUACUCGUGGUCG
Conditions: 30 °C
Below is a list of entries, each paired with its recorded self-splicing fitness (ln) value.
# respond with the number and nothing more

{"CHAIN": "CGGGAGCAAUAUUACGUUAA", "self-splicing fitness (ln)": -2.63}
{"CHAIN": "UGAAAGCAAUAUUACGCGCC", "self-splicing fitness (ln)": -0.832}
{"CHAIN": "UACCAGCAAUAUUACGACGU", "self-splicing fitness (ln)": -2.11}
{"CHAIN": "GCGCAGCAAUAUUACGCGGG", "self-splicing fitness (ln)": -2.93}
{"CHAIN": "GGGGAGCAAUAUUACGGUCC", "self-splicing fitness (ln)": -1.26}
{"CHAIN": "CUAUAGCAAUAUUACGGCCU", "self-splicing fitness (ln)": -2.9}
{"CHAIN": "UUAUAGCAAUAUUACGGUUA", "self-splicing fitness (ln)": -0.941}
{"CHAIN": "AAGAAGCAAUAUUACGUUAA", "self-splicing fitness (ln)": -2.77}

Let us examine a further case.
Suppose we examine the sequence ACAGAGCAAUAUUACGGGUU ; what self-splicing fitness (ln) value has been reported? -2.43

###

Assay: self-splicing fitness, log relative to wild type (ln ratio); higher = more splicing; Tetrahymena group I intron in knt gene, E. coli kanamycin selection, DiMSum; sequences stand for … in CUCUCU…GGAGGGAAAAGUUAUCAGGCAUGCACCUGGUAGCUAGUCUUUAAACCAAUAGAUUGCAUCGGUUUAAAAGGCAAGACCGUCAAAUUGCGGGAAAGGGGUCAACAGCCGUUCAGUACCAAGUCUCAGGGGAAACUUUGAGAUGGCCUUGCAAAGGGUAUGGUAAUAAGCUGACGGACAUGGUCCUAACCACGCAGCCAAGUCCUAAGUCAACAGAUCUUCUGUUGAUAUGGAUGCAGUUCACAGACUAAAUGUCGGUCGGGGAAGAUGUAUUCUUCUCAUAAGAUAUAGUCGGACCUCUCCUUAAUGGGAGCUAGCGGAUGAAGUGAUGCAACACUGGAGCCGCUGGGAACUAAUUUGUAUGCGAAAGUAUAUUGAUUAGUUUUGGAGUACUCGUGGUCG
Conditions: 30 °C
Entry flag: MET if self-splicing fitness (ln) reaches -2; NOT MET if it does not.

Could you tell me if the measured self-splicing fitness (ln) of CUCCAGCAAUAUUACGUCUG reaches -2 or more? NOT MET

Could you tell me if the measured self-splicing fitness (ln) of GGGUAGCAAUAUUACGGCAA reaches -2 or more? MET

Could you tell me if the measured self-splicing fitness (ln) of GUUCAGCAAUAUUACGUCAC reaches -2 or more? MET

Could you tell me if the measured self-splicing fitness (ln) of CCAGAGCAAUAUUACGGUCG reaches -2 or more? MET

Could you tell me if the measured self-splicing fitness (ln) of ACAAAGCAAUAUUACGGUGU reaches -2 or more? NOT MET

Could you tell me if the measured self-splicing fitness (ln) of UGGCAGCAAUAUUACGCACG reaches -2 or more? MET

###

Below is a list of entries, each paired with its recorded self-splicing fitness (ln) value.
Test: self-splicing fitness, log relative to wild type (ln ratio); higher = more splicing; Tetrahymena group I intron in knt gene, E. coli kanamycin selection, DiMSum; sequences stand for … in CUCUCU…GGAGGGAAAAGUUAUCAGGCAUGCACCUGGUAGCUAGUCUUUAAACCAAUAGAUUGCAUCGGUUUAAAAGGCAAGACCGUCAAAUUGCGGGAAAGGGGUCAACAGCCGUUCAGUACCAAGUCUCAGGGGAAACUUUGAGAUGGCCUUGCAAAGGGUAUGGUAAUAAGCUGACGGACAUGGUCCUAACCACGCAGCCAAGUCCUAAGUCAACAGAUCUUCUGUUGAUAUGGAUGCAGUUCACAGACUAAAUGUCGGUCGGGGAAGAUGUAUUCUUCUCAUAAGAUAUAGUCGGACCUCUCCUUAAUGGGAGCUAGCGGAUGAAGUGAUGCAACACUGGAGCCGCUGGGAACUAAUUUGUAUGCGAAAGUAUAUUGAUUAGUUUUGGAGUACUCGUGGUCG
Conditions: 30 °C
# respond with the number and nothing more

The cases that follow already have their self-splicing fitness (ln) on record.
{"CHAIN": "UGCCAGCAAUAUUACGGUCU", "self-splicing fitness (ln)": -0.21}
{"CHAIN": "GAAAAGCAAUAUUACGUAAC", "self-splicing fitness (ln)": -2.11}
{"CHAIN": "GAGUAGCAAUAUUACGCGCA", "self-splicing fitness (ln)": -1.93}
{"CHAIN": "AUCUAGCAAUAUUACGUAAU", "self-splicing fitness (ln)": -1.28}
{"CHAIN": "UGGCAGCAAUAUUACGUUUG", "self-splicing fitness (ln)": -0.921}

Suppose we examine the sequence UGGCAGCAAUAUUACGGUCG ; what self-splicing fitness (ln) value has been reported? -0.881

Suppose we examine the sequence UUCCAGCAAUAUUACGCACG ; what self-splicing fitness (ln) value has been reported? -1.72

Suppose we examine the sequence UCCAAGCAAUAUUACGACAA ; what self-splicing fitness (ln) value has been reported? -2.14

Suppose we examine the sequence GCACAGCAAUAUUACGGCAU ; what self-splicing fitness (ln) value has been reported? -1.59

Suppose we examine the sequence UGGGAGCAAUAUUACGAUCG ; what self-splicing fitness (ln) value has been reported? -1.33

Suppose we examine the sequence UUAAAGCAAUAUUACGGUCU ; what self-splicing fitness (ln) value has been reported? -0.805
